tested on: hepatocytes; experiment: RNA-seq of hepatocytes treated with Phase III failure compounds; conditions: gene BCR; hepatocytes
Structures can show the parent of a compound that is named as a salt.
Property: BCR expression, RNA-seq result

Check out these entries, answers already filled in.
Molecule | BCR expression, RNA-seq result
CN(C)[C@@H]1C(O)=C(C(N)=O)C(=O)[C@@]2(O)C(O)=C3C(=O)c4c(O)c(NC(=O)CN5CCCC5)cc(F)c4C[C@H]3C[C@@H]12 [TP-434 (Eravacycline), Eravacycline] | −0.17
Fc1ccc(C(OCCN2CCN(CCCc3ccccc3)CC2)c2ccc(F)cc2)cc1 [Vanoxerine (dihydrochloride), Vanoxerine] | 0.04
COc1cccc2c1C(=O)c1c(O)c3c(c(O)c1C2=O)C[C@@](O)(/C(CO)=N/NC(=O)CCCCCN1C(=O)C=CC1=O)C[C@@H]3O[C@H]1C[C@H](N)[C@H](O)[C@H](C)O1 [INNO-206 (aldoxorubicin), aldoxorubicin] | −0.83
O=C(N[C@H]1CN2CCC1CC2)c1cc2cccc(Cl)c2s1 [EVP-6124 (hydrochloride) (encenicline), encenicline] | −0.06
Cn1c(COP(=O)(NCCBr)NCCBr)cnc1[N+](=O)[O-] [TH-302 (Evofosfamide), Evofosfamide] | −0.01

In the following, a different molecule is considered.
Prompt: Sample CC(C)[C@H](O)C(=O)N[C@@H](C)C(=O)N[C@@H]1C(=O)N(C)CCc2ccccc21 [Semagacestat] — what was its BCR expression, RNA-seq result?
Response: −0.04

====

test system: hepatocytes; assay: RNA-seq of hepatocytes treated with Phase III failure compounds
Property: RNA-seq results: CYP7B1 expression
When you answer, write just the number.

Structure String | Recorded Number
CCOC(=O)N1c2ccc(C(F)(F)F)cc2[C@@H](N(Cc2cc(C(F)(F)F)cc(C(F)(F)F)c2)C(=O)OC)C[C@H]1CC | −0.44
Cn1cc(C2=C(c3cn(C4CCN(Cc5ccccn5)CC4)c4ccccc34)C(=O)NC2=O)c2ccccc21 | 0.26
COc1cc2c(Oc3ccc4[nH]c(C)cc4c3F)ncnc2cc1OCCCN1CCCC1 | −0.02
COc1cc2nccc(Oc3ccc(NC(=O)Nc4cc(C)on4)c(Cl)c3)c2cc1OC | −0.17

Prompt: Field request: RNA-seq results: CYP7B1 expression | item: "NC(=O)c1ccc(I)c([N+](=O)[O-])c1"
Response: 0.05

====

test system: hepatocytes; assay: RNA-seq of hepatocytes treated with Phase III failure compounds; conditions: gene G6PC; hepatocytes
Property: RNA-seq results: G6PC expression
Reply: number alone, nothing else.

For orientation, consider the following solved cases.
Compound | Recorded Number
CCN(CC)CCN(Cc1ccc(-c2ccc(C(F)(F)F)cc2)cc1)C(=O)Cn1c(SCc2ccc(F)cc2)nc(=O)c2c1CCC2 [Darapladib] | 0.6
Cn1cnc2c(F)c(Nc3ccc(Br)cc3Cl)c(C(=O)NOCCO)cc21 [Selumetinib] | 1.05
Cn1cc(C2=C(c3cn(C4CCN(Cc5ccccn5)CC4)c4ccccc34)C(=O)NC2=O)c2ccccc21 [Enzastaurin] | 0.69
CCOC(=O)N1c2ccc(C(F)(F)F)cc2[C@@H](N(Cc2cc(C(F)(F)F)cc(C(F)(F)F)c2)C(=O)OC)C[C@H]1CC [Torcetrapib] | −0.17
COc1cc2c(Oc3ccc4[nH]c(C)cc4c3F)ncnc2cc1OCCCN1CCCC1 [Cediranib] | 0.32
COc1cc2nccc(Oc3ccc(NC(=O)Nc4cc(C)on4)c(Cl)c3)c2cc1OC [Tivozanib] | −0.01
O=P(O)(NCCCl)NCCCl [Palifosfamide] | 3.27

Now examine the next entry.
Prompt: Quick one: RNA-seq results: G6PC expression for CCC(CC)[C@H](NC(C)=O)[C@@H]1[C@H](O)[C@@H](C(=O)O)C[C@H]1NC(=N)N.O.O.O [peramivir (trihydrate), peramivir] ?
Response: 0.01

====

test system: hepatocytes; assay: RNA-seq of hepatocytes treated with Phase III failure compounds; conditions: gene B2M; hepatocytes
Where a name gives a salt, the structure may show the parent alone.
Mark true (1) for reported B2M expression, RNA-seq result of -0.06 or greater; mark false (0) for anything smaller.

Example entries and their recorded answers appear below.
Molecule | Subject Of Test | Class Label
COc1nc(C)cnc1NS(=O)(=O)c1cccnc1-c1ccc(-c2nnco2)cc1 | hepatocytes | false (0)
COc1cccc2c1C(=O)c1c(O)c3c(c(O)c1C2=O)C[C@@](O)(/C(CO)=N/NC(=O)CCCCCN1C(=O)C=CC1=O)C[C@@H]3O[C@H]1C[C@H](N)[C@H](O)[C@H](C)O1 | hepatocytes | true (1)
Cn1c(COP(=O)(NCCBr)NCCBr)cnc1[N+](=O)[O-] [TH-302 (Evofosfamide), Evofosfamide] | hepatocytes | true (1)

Prompt: Would you say Fc1ccc(C(OCCN2CCN(CCCc3ccccc3)CC2)c2ccc(F)cc2)cc1 [Vanoxerine (dihydrochloride), Vanoxerine] shows B2M expression, RNA-seq result at minimum -0.06?
Response: false (0)

Prompt: Confirm if B2M expression, RNA-seq result reported for the molecule "COCCOc1ccc(N2CCN(CCn3ncc4c3nc(N)n3nc(-c5ccco5)nc43)CC2)cc1" is -0.06 or above.
Response: true (1)

Prompt: Given CN(C)[C@@H]1C(O)=C(C(N)=O)C(=O)[C@@]2(O)C(O)=C3C(=O)c4c(O)c(NC(=O)CN5CCCC5)cc(F)c4C[C@H]3C[C@@H]12 [TP-434 (Eravacycline), Eravacycline] , state whether its B2M expression, RNA-seq result is at least -0.06.
Response: true (1)

Prompt: Identify whether the reported B2M expression, RNA-seq result of the following molecule is -0.06 or greater: COc1nc(N)nc2c1ncn2[C@@H]1O[C@H](COP(=O)(N[C@@H](C)C(=O)OCC(C)(C)C)Oc2cccc3ccccc23)[C@@H](O)[C@@]1(C)O (stereo partly shown)
Response: true (1)

Prompt: Could you tell me if the measured B2M expression, RNA-seq result of O=C(N[C@H]1CN2CCC1CC2)c1cc2cccc(Cl)c2s1 [EVP-6124 (hydrochloride) (encenicline), encenicline] reaches -0.06 or more?
Response: true (1)

Prompt: Please indicate if the recorded B2M expression, RNA-seq result for C=CC(=O)Nc1cccc(Nc2nc(Nc3ccc(N4CCN(C(C)=O)CC4)cc3OC)ncc2C(F)(F)F)c1 [CO-1686 (Rociletinib), Rociletinib] meets or exceeds -0.06.
Response: false (0)

====

Below, each entry is listed with its recorded RNA-seq results: GBE1 expression.
test system: hepatocytes; assay: RNA-seq of hepatocytes treated with Phase III failure compounds; conditions: gene GBE1; hepatocytes

A selection of reference data follows.
Compound | Property | Result
NC(=O)c1ccc(I)c([N+](=O)[O-])c1 | RNA-seq results: GBE1 expression | −0.15
Cn1cnc2c(F)c(Nc3ccc(Br)cc3Cl)c(C(=O)NOCCO)cc21 | RNA-seq results: GBE1 expression | 0.06
COc1cc(Nc2ncc(F)c(Nc3ccc4c(n3)N(COP(=O)(O)O)C(=O)C(C)(C)O4)n2)cc(OC)c1OC | RNA-seq results: GBE1 expression | −0.01

Now look at this entry.
Prompt: Quick one: RNA-seq results: GBE1 expression for CCC(CC)[C@H](NC(C)=O)[C@@H]1[C@H](O)[C@@H](C(=O)O)C[C@H]1NC(=N)N.O.O.O [peramivir (trihydrate), peramivir] ?
Response: −0.08

====

test system: hepatocytes; test: RNA-seq of hepatocytes treated with Phase III failure compounds; conditions: gene ANKS4B; hepatocytes
RNA-seq results: ANKS4B expression under -0.3 gets YES, anything at or over -0.3 gets NO.

Solved entries (count: 6):
Molecule | Class Label
CCC(CC)[C@H](NC(C)=O)[C@@H]1[C@H](O)[C@@H](C(=O)O)C[C@H]1NC(=N)N.O.O.O [peramivir (trihydrate), peramivir] | NO
C=CCNC1=C2C[C@@H](C)C[C@H](OC)[C@H](O)[C@@H](C)/C=C(\C)[C@H](OC(N)=O)[C@@H](OC)/C=C\C=C(/C)C(=O)NC(=CC1=O)C2=O | NO
COc1cc2nccc(Oc3ccc(NC(=O)Nc4cc(C)on4)c(Cl)c3)c2cc1OC | YES
Cn1cc(C2=C(c3cn(C4CCN(Cc5ccccn5)CC4)c4ccccc34)C(=O)NC2=O)c2ccccc21 | YES
NC(=O)c1ccc(I)c([N+](=O)[O-])c1 | NO
CCOC(=O)N1c2ccc(C(F)(F)F)cc2[C@@H](N(Cc2cc(C(F)(F)F)cc(C(F)(F)F)c2)C(=O)OC)C[C@H]1CC | NO

Moving on to the next molecule.
Prompt: Field: below-cutoff. Rule: recorded RNA-seq results: ANKS4B expression strictly less than -0.3. Subject: "COc1cc2c(Oc3ccc4[nH]c(C)cc4c3F)ncnc2cc1OCCCN1CCCC1"
Response: YES

====

system: hepatocytes; test: RNA-seq of hepatocytes treated with Phase III failure compounds
Property: Number (#) of genes having significantly changed expression
Write the number on its own, no unit after it.

Reference set, count: 3
Molecule | Recorded Number
COc1cccc2c1C(=O)c1c(O)c3c(c(O)c1C2=O)C[C@@](O)(/C(CO)=N/NC(=O)CCCCCN1C(=O)C=CC1=O)C[C@@H]3O[C@H]1C[C@H](N)[C@H](O)[C@H](C)O1 | 1944
Cn1cc(C2=C(c3cn(C4CCN(Cc5ccccn5)CC4)c4ccccc34)C(=O)NC2=O)c2ccccc21 | 971
CN[C@@]1(C)[C@@H]2CC[C@@H](C2)C1(C)C | 30

Now for the molecule whose Number (#) of genes having significantly changed expression we want.
Prompt: Please tell me: Number (#) of genes having significantly changed expression of CN(C)[C@@H]1C(O)=C(C(N)=O)C(=O)[C@@]2(O)C(O)=C3C(=O)c4c(O)c(NC(=O)CN5CCCC5)cc(F)c4C[C@H]3C[C@@H]12 [TP-434 (Eravacycline), Eravacycline] , system hepatocytes?
Response: 232
